From: ChEMBL document CHEMBL6120978

Experiment: Selectivity index, ratio of IC50 for cytotoxicity against human HaCaT cells to IC50 for cytotoxicity against human MDA-MB-231 cells
Assay type: toxicity, cell-based
Conditions: HaCaT cells versus MDA-MB-231 cells, read-out: Ratio IC50
Consider the cut-off 1. If the recorded selectivity ratio is strictly smaller, the label is Satisfied; if not, the label is Not satisfied.

Asked: Is 1 strictly greater than the molecule's reported selectivity ratio? molecule: "CC[C@@H](C(=O)[C@@H](C)[C@@H](O)[C@H](C)[C@@H]1O[C@@H]([C@@H](CC)C(=O)OCCCC[P+](c2ccccc2)(c2ccccc2)c2ccccc2)CC[C@@H]1C)[C@H]1O[C@]2(C=C[C@@H](O)[C@]3(CC[C@@](C)([C@H]4CC[C@](O)(CC)[C@H](C)O4)O3)O2)[C@H](C)C[C@@H]1C.[Br-]"
Given back: Not satisfied

Asked: Is 1 strictly greater than the molecule's reported selectivity ratio? molecule: "CC[C@@H](C(=O)[C@@H](C)[C@@H](O)[C@H](C)[C@@H]1O[C@@H]([C@@H](CC)C(=O)OCCCC[P+](c2ccc(C)cc2)(c2ccc(C)cc2)c2ccc(C)cc2)CC[C@@H]1C)[C@H]1O[C@]2(C=C[C@@H](O)[C@]3(CC[C@@](C)([C@H]4CC[C@](O)(CC)[C@H](C)O4)O3)O2)[C@H](C)C[C@@H]1C.[Br-]"
Given back: Not satisfied

Asked: Is 1 strictly greater than the molecule's reported selectivity ratio? molecule: "CC[C@@H](C(=O)[C@@H](C)[C@@H](O)[C@H](C)[C@@H]1O[C@@H]([C@@H](CC)C(=O)OCCCCCC[P+](c2ccc(C)cc2)(c2ccc(C)cc2)c2ccc(C)cc2)CC[C@@H]1C)[C@H]1O[C@]2(C=C[C@@H](O)[C@]3(CC[C@@](C)([C@H]4CC[C@](O)(CC)[C@H](C)O4)O3)O2)[C@H](C)C[C@@H]1C.[Br-]"
Given back: Not satisfied

Asked: Is 1 strictly greater than the molecule's reported selectivity ratio? molecule: "CCCC[P+](CCCC)(CCCC)CCCCCCOC(=O)[C@H](CC)[C@H]1CC[C@H](C)[C@H]([C@@H](C)[C@H](O)[C@H](C)C(=O)[C@H](CC)[C@H]2O[C@]3(C=C[C@@H](O)[C@]4(CC[C@@](C)([C@H]5CC[C@](O)(CC)[C@H](C)O5)O4)O3)[C@H](C)C[C@@H]2C)O1.[Br-]"
Given back: Satisfied

Asked: Is 1 strictly greater than the molecule's reported selectivity ratio? molecule: "CC[C@@H](C(=O)[C@@H](C)[C@@H](O)[C@H](C)[C@@H]1O[C@@H]([C@@H](CC)C(=O)OCc2ccccc2)CC[C@@H]1C)[C@H]1O[C@]2(C=C[C@@H](O)[C@]3(CC[C@@](C)([C@H]4CC[C@](O)(CC)[C@H](C)O4)O3)O2)[C@H](C)C[C@@H]1C"
Given back: Satisfied

Asked: Is 1 strictly greater than the molecule's reported selectivity ratio? molecule: "CC[C@@H](C(=O)[C@@H](C)[C@@H](O)[C@H](C)[C@@H]1O[C@@H]([C@@H](CC)C(=O)OCCCCCC[P+](c2ccccc2)(c2ccccc2)c2ccccc2)CC[C@@H]1C)[C@H]1O[C@]2(C=C[C@@H](O)[C@]3(CC[C@@](C)([C@H]4CC[C@](O)(CC)[C@H](C)O4)O3)O2)[C@H](C)C[C@@H]1C.[Br-]"
Given back: Satisfied
